- METHOD_DESCRIPTION: amyloid nucleation score (Sup35N fusion, yeast selection) (log enrichment); library NNK2; higher = more nucleation; inactive = no reads after selection;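 note: zero at mode of non-aggregating sequences after 7 days selection at 30°C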
Returns the class for an entry based on its amyloid nucleation score. Class ranges: bucket A = under 0.4, bucket B = from 0.4 up to 2, bucket C = 2 and over

>>> label_class("SGFKLLGFTNYVHAVSMGSQ")
"bucket C"
>>> label_class("RRKHLWRQRLWTR")
"bucket A"
>>> label_class("SWVNMIMNMSLHTDIRYMLY")
"bucket B"
>>> label_class("RLSVLD")
"bucket B"
>>> label_class("CRAFVWQ")
"bucket A"
>>> label_class("IFGFGL")
"bucket C"
>>> label_class("SGFFAVGILITTLPLRGNER")
"bucket A"
>>> label_class("GIGAQINHSVPLRGGKPRAL")
"bucket A"
>>> label_class("SSKETGRRTVDRFQYMTRYR")
"bucket B"
>>> label_class("QLESRRDDHRVHESADGSA")
"bucket B"
>>> label_class("LDKKVSVSAVRLTRRDASEE")
"bucket C"
>>> label_class("DSDLLVTHMVMLYKHVE")
"bucket C"
>>> label_class("IFNRSASYLAFFHKG")
"bucket C"
>>> label_class("RVSYDF")
"bucket B"
>>> label_class("GVPYFLRW")
"bucket A"
>>> label_class("CQSLIFASTYHRNSSFGKNV")
"bucket C"

---

- METHOD_DESCRIPTION: amyloid nucleation score (Sup35N fusion, yeast selection) (log enrichment); library NNK1; higher = more nucleation; inactive = no reads after selection
REPORTED_ENDPOINT: amyloid nucleation score

>>> result("RWTEKGK")
-0.332
>>> result("IDSYITNKGSRSAKCHPDDS")
-0.701
>>> result("QGIEKGFDWKRIFCGELYVQ")
-0.065
>>> result("FGNRDFSQSDYNSCVFATGS")
2.2
>>> result("AVSAFSTVKSSFGDGGIGFF")
-0.398
>>> result("FSSCRPMIYLRCTEYNG")
-0.41
>>> result("RCVMFQVRHSNIGRKRDYGI")
0.389
>>> result("FLACGYMFGFRQSYHRPFRF")
3.35
>>> result("YHIRVAWQFVGADI")
-0.535
>>> result("FENFVASFLPNFGITLRKGQ")
0.043
>>> result("DSLGGSKSCGSKL")
0.891
>>> result("YGNKTYFAPR")
0.557
>>> result("RRVSLH")
0.416
>>> result("RFCRHEMVFVLDLNTYISVP")
0.887
>>> result("KLFGTAYS")
-0.847
>>> result("ISTNLHGDIKMVFVAIPWQE")
4.85
>>> result("MDARKTGTDNWRTS")
-0.202
>>> result("RFSSQTFY")
-1.08
>>> result("TWYHGSRMSLRVTGRILQCG")
-0.43
>>> result("RNLWGCMIWGMRG")
1.83
>>> result("MMYSIVRMLAFNAWSMR")
0.681
>>> result("HHLVLQRD")
0.347
>>> result("TLLSVTYSCIRMPVPMAYRS")
4.42
>>> result("MFSNILHAHLRAWA")
0.53
>>> result("FFGVLNIPNFCVSMF")
0.645
>>> result("RASILCA")
0.268
>>> result("FLEFVWRALEM")
-1.16
>>> result("CMRMRMFSKVVGSLWWESGY")
0.054
>>> result("SAICRYVF")
0.768
>>> result("FLNYVMDVLGGRIRDVWWFT")
0.829
>>> result("DDRTKLQLSMRWEQQIMRHR")
3.48
>>> result("YCIPTVRVFL")
0.575
>>> result("KKDSTYSRSRLDPFRLSVSV")
-0.14
>>> result("TNTFFLTILHPRFVKMGPCW")
4.55
>>> result("RFNREFMSSSVLRSWNDGYG")
-0.635
>>> result("CLARNSYPDVFRSETGKEAV")
-0.093
